Reference source: patent US20030148956A1

biological target: CRF1R; assay: cell-based or functional assay
Ends that are not written are not given here.
Parameter: CRF1R EC50

Worked cases, answers included:
* IVLSLDVPIGLLQILIEIEKQEKEKQQAANNRLLLDTI-NH2 [SEQ ID NO 154] | > 100 nM
* ZGPPISIDLPIPLLRKMIEIEKQEKEKQQAANNRLLLDTI (C-terminal amide) [SEQ ID NO 26] | > 1000 nM
* ZGPPISIDLPINLLRKMIEIEKQEKEKQQAANNRLLLDTI (C-terminal amide) [SEQ ID NO 37] | > 1000 nM

We next turn to a different binder, shown below.
Consider the binder shown here: ZGPPISIDLSLELLRKMIEIEKQEKEKQQATTNARILARV (C-terminal amide) [SEQ ID NO 142] What is its recorded CRF1R EC50? 43.5 nM
